For each entry below, report its pIC50 value.
system.under.test: Plasmodium falciparum calcium-dependent protein kinase 1 (CDPK1) (Plasmodium falciparum)
Construct: 6-Histidine (N); made in house
Sequence (P62344 whole entry): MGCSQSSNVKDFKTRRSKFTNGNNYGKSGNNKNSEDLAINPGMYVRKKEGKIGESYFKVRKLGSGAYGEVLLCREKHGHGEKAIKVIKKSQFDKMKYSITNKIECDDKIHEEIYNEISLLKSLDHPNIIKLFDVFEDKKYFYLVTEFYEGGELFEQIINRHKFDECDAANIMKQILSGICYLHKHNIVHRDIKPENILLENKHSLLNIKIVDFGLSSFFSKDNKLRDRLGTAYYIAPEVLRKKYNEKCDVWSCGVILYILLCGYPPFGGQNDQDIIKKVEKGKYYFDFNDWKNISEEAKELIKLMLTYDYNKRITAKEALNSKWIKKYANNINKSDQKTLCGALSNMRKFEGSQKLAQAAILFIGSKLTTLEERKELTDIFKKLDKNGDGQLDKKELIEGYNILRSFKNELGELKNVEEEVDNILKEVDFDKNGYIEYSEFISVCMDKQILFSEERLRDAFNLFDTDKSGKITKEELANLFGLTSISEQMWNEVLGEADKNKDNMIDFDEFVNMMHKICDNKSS
assay.overview: CDPK1 Kinase-Glo ATP-consumption screen and dose-response
Assay type: biochemical
test.context: hits below 1 uM; read-out: CDPK1 IC50
Give bare numbers, as −log10 of the molar value.

Use the examples below as a reference point.
compound=NC(=O)c1ccccc1Nc1nc(Nc2cc[nH]n2)ncc1Cl system_under_test="Plasmodium falciparum calcium-dependent protein kinase 1 (CDPK1) (Plasmodium falciparum)" reading=6.73
compound=CN1CCN(c2ccc(Nc3nccc(-c4c(-c5cccc(NC(=O)c6c(F)cccc6F)c5)nn5ccccc45)n3)cc2)CC1 system_under_test="Plasmodium falciparum calcium-dependent protein kinase 1 (CDPK1) (Plasmodium falciparum)" reading=7.46
compound=O=C(Nc1cccc(-c2nn3ncccc3c2-c2ccnc(Nc3ccccc3)n2)c1)c1c(F)cccc1F system_under_test="Plasmodium falciparum calcium-dependent protein kinase 1 (CDPK1) (Plasmodium falciparum)" reading=7.41
compound=COc1cccc(CNCC(C)(C)c2nc(-c3ccc(Cl)c(O)c3)c(-c3ccncc3)[nH]2)c1.Cl system_under_test="Plasmodium falciparum calcium-dependent protein kinase 1 (CDPK1) (Plasmodium falciparum)" reading=6.56
compound=CC(C)(CNC(=O)[C@@H]1CCCCN1)c1nc(-c2ccc(Cl)c(O)c2)c(-c2ccncc2)[nH]1.Cl system_under_test="Plasmodium falciparum calcium-dependent protein kinase 1 (CDPK1) (Plasmodium falciparum)" reading=6.72
compound=O=C(Nc1cccc(-c2nn3ccccc3c2-c2ccnc(Nc3ccc(-c4cc[nH]n4)cc3)n2)c1)c1c(F)cccc1F system_under_test="Plasmodium falciparum calcium-dependent protein kinase 1 (CDPK1) (Plasmodium falciparum)" reading=7.66
compound=Cc1ccc(O)cc1Nc1ccnc2cc(-c3cccc(CNCCS(C)(=O)=O)c3)ccc12 system_under_test="Plasmodium falciparum calcium-dependent protein kinase 1 (CDPK1) (Plasmodium falciparum)" reading=6.90
compound=O=C(O)C(F)(F)F.O=c1[nH]ccc2nc(N[C@@H]3CCNC3)nc(Nc3cc(Cl)cc(Cl)c3)c12 system_under_test="Plasmodium falciparum calcium-dependent protein kinase 1 (CDPK1) (Plasmodium falciparum)" reading=7.48

Value sought for every listed compound: pIC50.
1. COc1ccc2nc(-c3cc(-c4ccc(NC(C)=O)cc4)cnc3N)[nH]c2c1
2. NS(=O)(=O)CCc1cccc(Nc2nccc(-c3c(-c4cccc(NC(=O)c5c(F)cccc5F)c4)nn4ccccc34)n2)c1

**Result**
6.30
7.70
